system: EKVX NSCLC; test: NCI tumour cell line growth inhibition, 48 h; in the data active = GI50 below about 0.43 µM; inactive = the rest
Outcomes: 1.0 (active), 0.0 (inactive)

{"Compound": "C=C(C)[C@@H]1CC[C@]2(C)[C@H](C=CC3=C4C[C@@](C)(CO)CC[C@]4(C)CC[C@]32C)[C@@]1(C)CCCN", "Assayed System": "EKVX NSCLC", "Class Name": 0.0}
{"Compound": "CCc1ccccc1-n1c(N)c(C#N)c(-c2ccc(OC)c(OC)c2)c(C#N)c1=O", "Assayed System": "EKVX NSCLC", "Class Name": 0.0}
{"Compound": "COc1cc(/C=C/C(=O)c2ccc(Nc3nc(Nc4ccccc4)nc(Nc4ccc(Cl)cc4)n3)cc2)cc(OC)c1OC", "Assayed System": "EKVX NSCLC", "Class Name": 0.0}
{"Compound": "COc1ccc(-n2sc(=O)n(Cc3ccc(COC(=O)C(C)c4ccc(CC(C)C)cc4)cc3)c2=O)cc1 (centres undefined)", "Assayed System": "EKVX NSCLC", "Class Name": 0.0}
{"Compound": "Oc1[nH]c2ccc(Cl)cc2c1/C=c1/ccc2c(c1)N=C(c1cc(F)cc(F)c1)N=2", "Assayed System": "EKVX NSCLC", "Class Name": 0.0}
{"Compound": "CCOc1cc(/C=N\\NC(=O)N/N=C/c2ccc(O)c(OCC)c2)ccc1O", "Assayed System": "EKVX NSCLC", "Class Name": 0.0}
{"Compound": "N#CC[C@H](C1CCCC1)n1cc(-c2ncnc3[nH]ccc23)cn1", "Assayed System": "EKVX NSCLC", "Class Name": 0.0}
{"Compound": "COc1ccc(-c2cncn2-c2cc(OC)c(OC)c(OC)c2)cc1F", "Assayed System": "EKVX NSCLC", "Class Name": 1.0}
{"Compound": "Cc1ccc(-c2cc(/C=N/O)on2)cc1", "Assayed System": "EKVX NSCLC", "Class Name": 0.0}
{"Compound": "CCS/C(Nc1ccccc1)=C(\\C#N)C(=O)N/N=C/c1ccc(Cl)cc1Cl", "Assayed System": "EKVX NSCLC", "Class Name": 0.0}
{"Compound": "CCOC(=O)CNC(=O)C(CSC(=O)N(C)O)NC(=O)CCC(N)C(=O)O (centres undefined)", "Assayed System": "EKVX NSCLC", "Class Name": 0.0}
{"Compound": "CC(=O)OCC(=O)C1(O)C(C)CC2C3C=C(C)C4=Cc5c(cnn5-c5ccccc5)CC4(C)C3C(O)CC21C (centres undefined)", "Assayed System": "EKVX NSCLC", "Class Name": 0.0}
{"Compound": "CN(C)CCOc1nc2ccccc2c2c1-c1ccc(Cl)cc1C2=O", "Assayed System": "EKVX NSCLC", "Class Name": 0.0}
{"Compound": "C=C1C(=O)OC2CC3(C)OC3C3OC3C3=CC(OC3=O)C12 (centres undefined)", "Assayed System": "EKVX NSCLC", "Class Name": 0.0}
{"Compound": "C=C1CO[C@@H]2C[C@@H]1CC/C(C)=C/CC/C(C)=C/CC[C@@]2(C)O", "Assayed System": "EKVX NSCLC", "Class Name": 0.0}
{"Compound": "C[C@@H]1CN2[C@H]3[C@@H]1CC[C@]31CCC(=O)O[C@]1(C)[C@@H]1CC[C@H]3CCC=C3[C@@H]12", "Assayed System": "EKVX NSCLC", "Class Name": 0.0}
{"Compound": "C=C=[CH][Sn]([c]1ccccc1)([c]1ccccc1)[c]1ccccc1", "Assayed System": "EKVX NSCLC", "Class Name": 0.0}
{"Compound": "N#CC(C#N)=Cc1ccc(-c2ccc(-c3nc4ccccc4o3)cc2)o1", "Assayed System": "EKVX NSCLC", "Class Name": 0.0}
{"Compound": "N#CSCC(=O)c1ccc(Cl)cc1", "Assayed System": "EKVX NSCLC", "Class Name": 0.0}

---

tested on: OVCAR-3 ovarian; experiment: NCI tumour cell line growth inhibition, 48 h
Entries and their GI50
Metric Name: GI50

{"Compound": "CS[C@@]1(C(=O)Nc2ccc3[nH]nc(-c4ccc(OC(C)C)nc4)c3c2)CCN(CC(=O)N2CC=C(c3ccc(-c4ncn(C)n4)cc3)CC2)C1", "Assayed System": "OVCAR-3 ovarian", "Metric Name": "GI50", "Result": "> 100 µM"}
{"Compound": "Cc1cccnc1CNC1CC(NCc2ncccc2C)CC(NCc2ncccc2C)C1 (centres undefined)", "Assayed System": "OVCAR-3 ovarian", "Metric Name": "GI50", "Result": "3.1 µM"}
{"Compound": "CCc1ccccc1-n1c(N)c(C#N)c(-c2ccc(OC)c(OC)c2)c(C#N)c1=O", "Assayed System": "OVCAR-3 ovarian", "Metric Name": "GI50", "Result": "17.3 µM"}
{"Compound": "CC[O-].CC[O-].O=C([CH-]C(=O)c1ccccc1)c1ccccc1.O=C([CH-]C(=O)c1ccccc1)c1ccccc1.[Ti+4]", "Assayed System": "OVCAR-3 ovarian", "Metric Name": "GI50", "Result": "> 100 µM"}

---

system: UO-31 renal; assay: NCI tumour cell line growth inhibition, 48 h; in the data active = GI50 below about 0.43 µM; inactive = the rest
Outcomes: TRUE = active, FALSE = inactive

{"Compound": "N#CC(C#N)=Cc1ccc(-c2ccc(-c3nc4ccccc4o3)cc2)o1", "Class Name": "FALSE"}
{"Compound": "C[C@@H](Oc1cc(-c2cnn(C3CC4(CCCNC4)C3)c2)cnc1N)c1c(Cl)ccc(F)c1Cl (stereo not given in full)", "Class Name": "FALSE"}
{"Compound": "CON", "Class Name": "FALSE"}
{"Compound": "CCS/C(Nc1ccccc1)=C(\\C#N)C(=O)N/N=C/c1ccc(Cl)cc1Cl", "Class Name": "FALSE"}
{"Compound": "N#CC[C@H](C1CCCC1)n1cc(-c2ncnc3[nH]ccc23)cn1", "Class Name": "FALSE"}
{"Compound": "CNCCOc1nc2c3cnccc3cc(-c3cc(OC)c(OC)c(OC)c3)c2c2ccncc12", "Class Name": "TRUE"}
{"Compound": "C[C@@H]1CN2[C@H]3[C@@H]1CC[C@]31CCC(=O)O[C@]1(C)[C@@H]1CC[C@H]3CCC=C3[C@@H]12", "Class Name": "FALSE"}
{"Compound": "Cc1c(N2C(=O)/C(=C\\c3ccc(N(C)C)cc3)N=C2c2ccccc2)c(=O)n(-c2ccccc2)n1C", "Class Name": "FALSE"}
{"Compound": "CC(=O)OCC(=O)C1(O)C(C)CC2C3C=C(C)C4=Cc5c(cnn5-c5ccccc5)CC4(C)C3C(O)CC21C (stereo not given)", "Class Name": "FALSE"}
{"Compound": "COc1ccc(-c2cncn2-c2cc(OC)c(OC)c(OC)c2)cc1F", "Class Name": "TRUE"}

---

system: U251 CNS; assay: NCI tumour cell line growth inhibition, 48 h
Metric Name: TGI

{"Compound": "Oc1[nH]c2ccccc2c1N=NC(=S)N1CCCC1", "Result": "22.6 µM"}
{"Compound": "CC(OCc1ccccc1)C(NC(=O)C1CSSCC(NC(=O)C(Cc2ccccc2)NC(=O)OCc2ccccc2)C(=O)NC(Cc2ccccc2)C(=O)NC(Cc2cn(C=O)c3ccccc23)C(=O)NC(CCCCNC(=O)OCc2ccccc2)C(=O)NC(C(C)OCc2ccccc2)C(=O)N1)C(N)=O (stereo not drawn)", "Result": "> 70.7 µM"}
{"Compound": "C[C@]12CC[C@H](O)CC1=CC[C@@H]1[C@@H]2CC[C@]2(C)C(=O)CC[C@@H]12", "Result": "> 100 µM"}
{"Compound": "CC1OC(OC2C(O[C@@H]3C[C@@H]4CC[C@@H]5[C@H](CC[C@]6(C)[C@@H]7[C@H](C[C@@H]56)O[C@]5(CC[C@@H](C)CO5)[C@H]7C)[C@@]4(C)C[C@H]3O)OC(CO)C(OC3OC(CO)C(O)C(O)C3O)C2O)C(O)C(O)C1O (stereo partly drawn)", "Result": "3.2 µM"}
{"Compound": "O=C(CCc1cccc(O)c1)NCCc1cccc(OCc2ccccc2)c1", "Result": "32 µM"}
{"Compound": "COc1cc(C2C(C#N)=C(N)Oc3cc4c(cc32)OCO4)cc2c1OCO2 (stereo not drawn)", "Result": "> 38 µM"}
{"Compound": "Cc1sc(/N=C2/NC(=O)CS2)nc1-c1nc(/N=C2/NC(=O)CS2)sc1C", "Result": "> 50 µM"}
{"Compound": "CN(C)CCOc1nc2ccccc2c2c1-c1ccc(Cl)cc1C2=O", "Result": "1.59 µM"}
{"Compound": "COc1ccc(C2C3=C(COC3=O)N(CCO)c3cc4c(cc32)OCCO4)cc1OC (stereo not drawn)", "Result": "> 50 µM"}
{"Compound": "CC1(C)S[C@@H]2[C@H](NC(=O)/C=C/c3ccccc3)C(=O)N2[C@H]1C(=O)O", "Result": "> 100 µM"}
{"Compound": "CCCC(=O)OCC(O)CO (stereo not drawn)", "Result": "> 5000 µM"}
{"Compound": "O=C(NNC(=O)c1ccccc1Cl)c1ccccc1O", "Result": "> 100 µM"}
{"Compound": "COc1ccc2c(c1)CC[C@@H]1[C@@H]2CC[C@]2(C)[C@@H](O)/C(=C/c3ccncc3)C[C@@H]12", "Result": "25.1 µM"}
{"Compound": "O=C(Nc1ccc(F)cc1)c1cc2ccc(O)cc2oc1=Nc1ccccc1F", "Result": "97.5 µM"}
{"Compound": "Cc1cc(C)c(NS(=O)c2cccc([N+](=O)[O-])c2)c(C)c1 (stereo not drawn)", "Result": "> 100 µM"}
{"Compound": "Cc1ccccc1NC(=O)C(=O)Cc1cnc2ccccc2n1", "Result": "> 100 µM"}
{"Compound": "Cc1cc2c(cc1C)[n+]([O-])c(-c1c(Cl)cccc1Cl)c(N)[n+]2[O-]", "Result": "> 100 µM"}
{"Compound": "FC(F)(F)C1(C(F)(F)F)C2CCC3(CC(F)(F)C(F)(F)S3)C1C2 (stereo not drawn)", "Result": "> 100 µM"}
